In this section we review reported Percent Effect values for a set of compounds.
test system: Wolbachia pipientis; assay: Anti-Wolbachia Cell-Based Screen; format: functional; set-up: scale not given: in the data most compounds retested in dose-response had high values; conditions: 5 µM
The whole screen tested about 48,000 compounds, of which about 13,000 (27%) showed an effect of 50% or more. This is one part of the list.
readout_kind: Percent Effect

{"compound": "CN1CCC(Cc2nc(-c3cnccn3)n(Cc3ccccc3)n2)CC1", "tested_on": "Wolbachia pipientis", "readout_kind": "Percent Effect", "value": "21.66%"}
{"compound": "Cc1cccnc1NC(=O)C1CCCN(c2cccc(C(F)(F)F)n2)C1 (stereo not given)", "tested_on": "Wolbachia pipientis", "readout_kind": "Percent Effect", "value": "9.755%"}
{"compound": "Cn1ncnc1CNc1ccc2c(c1)N(C(=O)OC(C)(C)C)CCC2", "tested_on": "Wolbachia pipientis", "readout_kind": "Percent Effect", "value": "21.04%"}
{"compound": "Cc1ccc(NC(=O)c2nc3c(s2)CCCN3C(C)C)cn1", "tested_on": "Wolbachia pipientis", "readout_kind": "Percent Effect", "value": "4.841%"}
{"compound": "CC(=O)N(Cc1noc(C2CC2)n1)C1CCN(Cc2ccccn2)C1 (stereo not given)", "tested_on": "Wolbachia pipientis", "readout_kind": "Percent Effect", "value": "122.2%"}
{"compound": "Cc1nn(C)c(C)c1C(C)NC(=O)c1cc(CN2CCC(O)CC2)on1 (stereo not given)", "tested_on": "Wolbachia pipientis", "readout_kind": "Percent Effect", "value": "-4.084%"}
{"compound": "Cc1cnc(N2C[C@H]3CN(Cc4csc(C)n4)C(=O)[C@H]3C2)nc1.O=C(O)C(F)(F)F", "tested_on": "Wolbachia pipientis", "readout_kind": "Percent Effect", "value": "-0.6865%"}
{"compound": "N#CCCN(Cc1ccco1)C(=O)CN1CCCC1c1cccs1 (stereo not given)", "tested_on": "Wolbachia pipientis", "readout_kind": "Percent Effect", "value": "-7.66%"}
{"compound": "CCC(=O)N1CCN(C(=O)Nc2cccc(F)c2)[C@H]2CS(=O)(=O)C[C@H]21", "tested_on": "Wolbachia pipientis", "readout_kind": "Percent Effect", "value": "4.618%"}
{"compound": "CC(=O)N(Cc1noc(C)n1)C1CCN(Cc2cc(C)on2)C1 (stereo not given)", "tested_on": "Wolbachia pipientis", "readout_kind": "Percent Effect", "value": "0.668%"}
{"compound": "CC(=O)Nc1ncc(-c2ccc(C)cc2)[nH]1", "tested_on": "Wolbachia pipientis", "readout_kind": "Percent Effect", "value": "-15.96%"}
{"compound": "CC(=O)N(Cc1noc(C)n1)C1CCN(Cc2ccon2)C1 (stereo not given)", "tested_on": "Wolbachia pipientis", "readout_kind": "Percent Effect", "value": "2.71%"}
{"compound": "CSc1ccccc1CN1CCn2nc(CNC(C)=O)cc2C1", "tested_on": "Wolbachia pipientis", "readout_kind": "Percent Effect", "value": "-10.31%"}
{"compound": "Cc1nn(C)c2nc(O)cc(C(F)(F)C(F)(F)F)c12", "tested_on": "Wolbachia pipientis", "readout_kind": "Percent Effect", "value": "1.264%"}
{"compound": "COc1cc(N2CCC3(CCN(Cc4csc(C)n4)C3=O)C2)ncn1.O=C(O)C(F)(F)F (stereo not given)", "tested_on": "Wolbachia pipientis", "readout_kind": "Percent Effect", "value": "173.5%"}
{"compound": "CN1CCC(Cc2cncc(-c3ccccc3C(=O)O)n2)C1 (stereo not given)", "tested_on": "Wolbachia pipientis", "readout_kind": "Percent Effect", "value": "111.7%"}
{"compound": "CCCc1nc(C)cc(N2CCNC(C(=O)Nc3ccc(C)nc3)C2)n1 (stereo not given)", "tested_on": "Wolbachia pipientis", "readout_kind": "Percent Effect", "value": "-5.575%"}
{"compound": "Cc1cc(NC(=O)Cc2ccccc2O)cnc1N1CCCCC1", "tested_on": "Wolbachia pipientis", "readout_kind": "Percent Effect", "value": "13.35%"}
{"compound": "Cc1cnc(N2CCCC3(CCN(Cc4csc(C)n4)C3=O)C2)nc1.O=C(O)C(F)(F)F.O=C(O)C(F)(F)F (stereo not given)", "tested_on": "Wolbachia pipientis", "readout_kind": "Percent Effect", "value": "-16.03%"}
{"compound": "CN(C)CCn1ccc2cc(NC(=O)NCc3ccon3)ccc21", "tested_on": "Wolbachia pipientis", "readout_kind": "Percent Effect", "value": "-4.037%"}
{"compound": "COc1ccc(-c2noc(C(CC(C)C)N3CCCCC3=O)n2)cn1 (stereo not given)", "tested_on": "Wolbachia pipientis", "readout_kind": "Percent Effect", "value": "9.971%"}
{"compound": "Cc1ccc(NC(=O)[C@@H]2C[C@H](C(=O)O)CN(Cc3sccc3C)C2)cn1", "tested_on": "Wolbachia pipientis", "readout_kind": "Percent Effect", "value": "101.2%"}
{"compound": "COc1cc(N2CCC3(CCN(Cc4csc(C)n4)C3)CC2)ncn1.O=C(O)C(F)(F)F", "tested_on": "Wolbachia pipientis", "readout_kind": "Percent Effect", "value": "133.8%"}
{"compound": "Cc1ccc(CCNc2nc(-c3ccncc3)nc3c2CCNCC3)o1", "tested_on": "Wolbachia pipientis", "readout_kind": "Percent Effect", "value": "-0.1721%"}
{"compound": "COc1cc(CNc2nc(C3CC3)no2)cc(OC)c1OC", "tested_on": "Wolbachia pipientis", "readout_kind": "Percent Effect", "value": "3.811%"}
{"compound": "O=C(Cc1cccnc1)N1CCCC(n2cncn2)C1 (stereo not given)", "tested_on": "Wolbachia pipientis", "readout_kind": "Percent Effect", "value": "106.6%"}
{"compound": "COCCN1CCC(Cc2cnc(-c3ccccc3C(=O)O)cn2)CC1", "tested_on": "Wolbachia pipientis", "readout_kind": "Percent Effect", "value": "103.8%"}
{"compound": "Cc1nc(CN2CCC3(CCCN(C(=O)c4cnccn4)C3)C2)cs1.O=C(O)C(F)(F)F (stereo not given)", "tested_on": "Wolbachia pipientis", "readout_kind": "Percent Effect", "value": "-5.513%"}
{"compound": "Cc1ccc(N2CCC3(CCN(Cc4csc(C)n4)C3=O)C2)nn1 (stereo not given)", "tested_on": "Wolbachia pipientis", "readout_kind": "Percent Effect", "value": "95.91%"}
{"compound": "CCN(CC)c1ccc(NS(=O)(=O)c2cnn(C)c2)cn1", "tested_on": "Wolbachia pipientis", "readout_kind": "Percent Effect", "value": "-7.679%"}
{"compound": "Cc1nc(C)c(CCNC(Cc2ccncc2)C(F)(F)F)s1 (stereo not given)", "tested_on": "Wolbachia pipientis", "readout_kind": "Percent Effect", "value": "2.095%"}
{"compound": "Cc1nn(C)cc1NC(=O)CC1CCN(CCc2ccccc2)CC1", "tested_on": "Wolbachia pipientis", "readout_kind": "Percent Effect", "value": "168.6%"}
{"compound": "CC1(c2ccccc2)CCCN(Cc2cncn2C2CC2)C1 (stereo not given)", "tested_on": "Wolbachia pipientis", "readout_kind": "Percent Effect", "value": "-17.5%"}
{"compound": "COc1ccccc1[C@@H]1CN(CC2CCC2)C[C@H]1C(=O)O", "tested_on": "Wolbachia pipientis", "readout_kind": "Percent Effect", "value": "-30.09%"}
{"compound": "CC(=O)N1CCN(CCNc2snc(Cl)c2C#N)CC1", "tested_on": "Wolbachia pipientis", "readout_kind": "Percent Effect", "value": "4.799%"}
{"compound": "CC(NC(=O)Nc1cccnc1N1CCCC1)c1nncn1C (stereo not given)", "tested_on": "Wolbachia pipientis", "readout_kind": "Percent Effect", "value": "-5.724%"}
{"compound": "COCc1cccc(S(=O)(=O)NCc2cnn(C)c2C)c1", "tested_on": "Wolbachia pipientis", "readout_kind": "Percent Effect", "value": "10.62%"}
{"compound": "CC(C)N1CCC(Cc2cncc(-c3ccccc3C(=O)O)n2)C1 (stereo not given)", "tested_on": "Wolbachia pipientis", "readout_kind": "Percent Effect", "value": "128.5%"}
{"compound": "Cc1nc(CN2CCC3(CCN(C(=O)c4ccoc4C)CC3)C2)cs1.O=C(O)C(F)(F)F", "tested_on": "Wolbachia pipientis", "readout_kind": "Percent Effect", "value": "2.621%"}
{"compound": "CS(=O)(=O)NC1CCN(CCc2ccccc2)CC1", "tested_on": "Wolbachia pipientis", "readout_kind": "Percent Effect", "value": "-1.788%"}
{"compound": "COCCN1CC[C@@H](O)[C@@H]1Cc1ccccc1.O=C(O)C(F)(F)F", "tested_on": "Wolbachia pipientis", "readout_kind": "Percent Effect", "value": "8.923%"}
{"compound": "Cc1ccsc1CNc1ccccc1C(=O)N1CCNC(=O)C1", "tested_on": "Wolbachia pipientis", "readout_kind": "Percent Effect", "value": "4.147%"}
{"compound": "CC(C)(O)CCc1ccc(C(=O)N2CCN(CC3CCCC3)CC2)cc1", "tested_on": "Wolbachia pipientis", "readout_kind": "Percent Effect", "value": "-6.284%"}
{"compound": "CC(=O)N(Cc1noc(C2CC2)n1)C1CCN(Cc2cc(C)on2)C1 (stereo not given)", "tested_on": "Wolbachia pipientis", "readout_kind": "Percent Effect", "value": "124.1%"}
{"compound": "C[S+]([O-])c1nncn1CC(=O)c1cccc(Br)c1 (stereo not given)", "tested_on": "Wolbachia pipientis", "readout_kind": "Percent Effect", "value": "-3.709%"}
